Recorded values, source patent US7956074B2.

# Target Under Test: GABA A receptor α5β3γ2 (Homo sapiens, UniProt P18507+P31644)
# Construct: expressed in transfected cells; host or cells: HEK293 cells, transiently transfected; membranes prepared
# Assay Protocol: [3H]flumazenil competition binding, human GABA A α5β3γ2
# Test Conditions: competition for [3H]flumazenil (0.5 nM) binding, HEK293 cells expressing human (transiently transfected) α5β3γ2; means of two determinations; read-out: Ki[nM] hα5
Just a reminder that ties go to f: only Ki strictly below 40 nM counts as t.

Here are 3 compounds together with their reported answers.
Is 40 nM strictly greater than the compound's reported Ki? compound: COc1cc(NC2CCOCC2)ccc1-c1nnc(-c2c(-c3ccccc3)noc2C2CC2)o1 [Example 82]
t

Is 40 nM strictly greater than the compound's reported Ki? compound: COc1cc(NCC2CC2)ccc1-c1nnc(-c2c(-c3ccccc3)noc2CCC2CC2)o1 [Example 18]
f

Is 40 nM strictly greater than the compound's reported Ki? compound: Cc1onc(-c2ccccc2)c1-c1nnc(-c2ccccc2)o1 [Example 1]
f

Next:
Is 40 nM strictly greater than the compound's reported Ki? compound: COc1ncccc1-c1nnc(-c2c(-c3ccccc3)noc2C)o1 [Example 93]
t

Is 40 nM strictly greater than the compound's reported Ki? compound: COc1ccc(-c2nnc(-c3c(-c4ccccc4)noc3C)o2)c(Cl)n1 [Example 99]
f

Is 40 nM strictly greater than the compound's reported Ki? compound: Cc1onc(-c2ccccc2)c1-c1nnc(-c2ccc(F)cc2F)o1 [Example 76]
f

Is 40 nM strictly greater than the compound's reported Ki? compound: Cc1onc(-c2ccccc2)c1-c1nnc(-c2ccc3c(c2)n(C)c(=O)n3C)o1 [Example 51]
f

Is 40 nM strictly greater than the compound's reported Ki? compound: COc1cc(N2CCN(C)CC2)ccc1-c1nnc(-c2c(-c3ccccc3)noc2C)o1 [Example 67]
t

Is 40 nM strictly greater than the compound's reported Ki? compound: COc1cc(N(C)C)ccc1-c1nnc(-c2c(-c3ccccc3)noc2C)o1 [Example 72]
t

Is 40 nM strictly greater than the compound's reported Ki? compound: Cc1onc(-c2ccccc2)c1-c1nnc(-c2ccc(NCCO)nc2)o1 [Example 137]
t

Is 40 nM strictly greater than the compound's reported Ki? compound: COc1cc([N+](=O)[O-])ccc1-c1nnc(-c2c(-c3ccccc3)noc2C)o1 [Example 11]
f

Is 40 nM strictly greater than the compound's reported Ki? compound: Cc1onc(-c2ccccc2)c1-c1nnc(-c2ccncc2)o1 [Example 40]
f

Is 40 nM strictly greater than the compound's reported Ki? compound: COCc1onc(-c2ccccc2)c1-c1nnc(-c2ccc(F)cc2OC)o1 [Example 91]
f

====

# Target Under Test: GABA A receptor α5β3γ2 (Homo sapiens, UniProt P18507+P31644)
# Construct: expressed in transfected cells; host or cells: HEK293 cells, transiently transfected; membranes prepared
# Assay Protocol: [3H]flumazenil competition binding, human GABA A α5β3γ2
# Test Conditions: competition for [3H]flumazenil (0.5 nM) binding, HEK293 cells expressing human (transiently transfected) α5β3γ2; means of two determinations; read-out: Ki[nM] hα5
Measured Ki determines class: band 1: < 20 nM; band 2: ≥ 20 nM and < 40 nM; band 3: ≥ 40 nM

Here are 6 compounds together with their reported answers.
Categorize the following entry: Cc1onc(-c2ccccc2)c1-c1nnc(-c2ccc([N+](=O)[O-])cc2)o1 [Example 32]
band 3

Categorize the following entry: COc1cc(NCCN2CCCC2)c(F)cc1-c1nnc(-c2c(-c3ccccc3)noc2C)o1 [Example 132]
band 1

Categorize the following entry: Cc1onc(-c2ccccc2)c1-c1nnc(-c2ccc(N3CCC(O)CC3)nc2)o1 [Example 140]
band 2

Categorize the following entry: Cc1onc(-c2ccccc2)c1-c1nnc(-c2ccnc3ccccc23)o1 [Example 44]
band 3

Categorize the following entry: COc1ccc(-c2nnc(-c3c(-c4ccccc4)noc3C)o2)cc1 [Example 5]
band 2

Categorize the following entry: COc1cc(NC(=O)C2CC2)ccc1-c1nnc(-c2c(-c3ccccc3)noc2C)o1 [Example 16]
band 1

Next:
Categorize the following entry: Cc1onc(-c2ccccc2)c1-c1nnc(-c2ccc(C(=O)NC3CC3)cc2)o1 [Example 78]
band 3

Categorize the following entry: Cc1onc(-c2ccccc2)c1-c1nnc(-c2cc(F)c(N3CCSCC3)cc2F)o1 [Example 119]
band 2

Categorize the following entry: COc1cc(N2CCOCC2)ccc1-c1nnc(-c2c(-c3cccnc3)noc2C)o1 [Example 102]
band 3

Categorize the following entry: COc1cc(NCC2CC2)ccc1-c1nnc(-c2c(-c3ccccc3)noc2C)o1 [Example 19]
band 1
